Test system: RPS6KA5(Kin.Dom.1-N-terminal);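 further: kd values determined as follow-up on hits from a single-replicate KINOMEscan panel screen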
test_readout: Kd

Fill: Kd (RPS6KA5(Kin.Dom.1-N-terminal)) for this compound Fc1cccc(COc2ccc(Nc3ncnc4sc(-c5ccc[nH]5)cc34)cc2Cl)c1
> 10 µM

====

# %Inh listing for each entry below
Test system: EPHB1;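 further: KINOMEscan kinase panel screen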
Details: concentration: 1 μM, replicates: in singlicate; n = 1
Supply the numeric figure in %, leaving out any unit text.

// below: answered molecules
Nc1nccc2scc(-c3ccc4c(c3)CCN4C(=O)Cc3cc(F)ccc3F)c12 [GSK2587663] : 7
Cn1cc(-c2ccc3c(c2)CCN3C(=O)Cc2cccc(C(F)(F)F)c2)c2c(N)ncnc21 [GSK2606414] : 15
NC(=O)c1sc(-n2cnc3ccccc32)cc1OCc1ccccc1F [GSK1024306] : 0
COC(=O)c1cccc(NC(=O)NCCNc2ccnc(Nc3ccc(F)cc3)n2)c1 [GSK1379883] : 4
O=C(Nc1ccccc1)Nc1ccc(Oc2ccc3nccn3n2)cc1 : 13
CSc1ccc(NC2=C(c3ccccc3Cl)C(=O)NC2=O)cc1 [SB-342411] : 9
O=C(c1ccc(-c2cc(-c3c[nH]nc3-c3ccccn3)ccn2)cc1)N1CCCC1 [GW792479] : 5
Clc1cccc(-c2nc(Nc3ccncc3)c3ccccc3n2)c1 [GW873004] : 19
CC(C)(C)c1ccc(-n2cnc3c(N)ncnc32)cc1 [SKF-97263] : 3
CNc1nccc(-c2c(-c3ccc(F)cc3)ncn2C2CCN(C)CC2)n1 [SB-222903] : 9

Report %Inh for Cl.Fc1ccccc1COc1ccc(Nc2ncnc3ccc(-c4nnc(C(F)(F)F)o4)cc23)cc1Cl [GW424170]
19

Report %Inh for CN1CCC(n2cnc(-c3ccc(F)cc3)c2-c2ccnc(NC3CCNCC3)n2)CC1 [SB-229482]
0

Report %Inh for Fc1ccc(Nc2nccc(-c3c(-c4ccc(Cl)cc4)nn4ncccc34)n2)cc1F [GW829058]
20

Report %Inh for Clc1ccc(-c2cc(-c3c[nH]nc3-c3ccccn3)ccn2)cc1 [GW681251]
7

Report %Inh for Cl.c1ccc(Cn2ccc3cc(Nc4ncnc5ccccc45)ccc32)cc1 [GW275568]
4

Report %Inh for CCCc1ccc(S(=O)(=O)NC2CCN(c3ccnc(Nc4ccc(OC)cc4)n3)C2)cc1 (stereo not drawn) [GSK1379737]
0

Report %Inh for FC(F)(F)c1ccc(-c2nn3ncccc3c2-c2ccnc(Nc3cccc(C(F)(F)F)c3)n2)cc1 [GW828205]
2

Report %Inh for CC(C)(C)OC(=O)NC1CCCN(c2cc(-c3ccc4c(N)n[nH]c4c3)nc(N)n2)C1 (stereo not drawn) [GSK2286096]
10
